The measurements presented in this section are drawn from the supplement of paper PMC9170038.

System: MS2 coat protein
Assay: apparent KD of MS2 coat protein; higher = weaker reporter binding
Conditions: Eterna round: R107; input ligand: arginine 13.2 mM
Response field class: string, computed from recorded apparent KD of MS2 coat protein by ranges range 1: < 10 nM; range 2: ≥ 10 nM and < 60 nM; range 3: ≥ 60 nM

Some entries whose results are on file:
Query: Could you place UACCCAUAGGGAAGGAGCGCGCUAACAUGAGGAUCACCCAUGUAAAGGGUUUCUGGCUUAGCGCAGGUAGGUCGCCCUAUGGGUA [#10 Exclusion - Arginine B] in its proper category? Many thanks.
Reply: range 3

Query: How about AAUAUAAGUGUAAUUAUAUGUAUCUCUGAUACCAGACUCUCAUGUGUCCCUUGGCAGCAGUUACAUGAGGAUCACCCAUGUAUUA [JR_Nu_SSTheophyA_Sub024] ?
Reply: range 2

Query: Continue with UUGCAUAUCUUGGAUACCAGCACAUGAGGAUCACCCAUGUCCGCGGGAUAGCUCCAGAUGUGCCCUUGGCAGCCACAUGCACUUG [Quinzama]
Reply: range 2

Query: Queued: GCAUCCUAGUCGGCCGCCACUGCAUCACCAGUGGCAGGUGAUCAACAUGAGGAUCACCCAUGUAGCAGGACCGGGACUAGGAUGC [(Trp1)-(TM)''-(TM)'-(Ms2)-(Trp2)_Design4]
Reply: range 3

Query: Next up: UUUGCACAUGAGGAUCACCCAUGUACAGAUACCAGCCUCAUCUACGGCCCUUGGCAGCUGAGACAAUGGUGACGUGACGGGCUUU [Erqugere]
Reply: range 2

Query: Now the sequence AACGUAUACAGAAGGAGCGUGAAUUAUAUUACUCAUUCAUAUACAUGAGGAUCACCCAUGUCACAGGUAGGUCGCUGUAUUCGUA [JR_ExcArginiB_Sub020]
Reply: range 2

Query: // same read-out, input: AUAUAUGACAGAAGGAGCGCCAUGAACACACAUGAGGAUCACCCAUGUUUUUUUUGUGUUUGGCAGGUAGGUCGCUGACAUGAAA [Same State Arginine B 3]
Reply: range 1

Query: Consider next the sequence UAGAUAGAGGGAAGGAGCGCGAUAACAUAACAUGAGGAUCACCCAUGUAAGAAAUUAAUAAUGCAGGUAGGUCGCCCAAGAUGAU [Same State Arginine B gf1] in the same way.
Reply: range 1

New cases:
Query: Band for the recorded apparent KD of MS2 coat protein of CUCCCUUCGGCGGCCGCCACUAACAGUUUAAUGGACUUUCGGGUCCACAUGAGGAUCACCCAUGUUAGGACCGGGCCCUUGCUCU [theeternabot_exclusion_MS2_Trp_B_39] ?
Reply: range 1

Query: Okay, and GGUUGAUGGUCGGCCGCCACUGUUGGUGCCAUGAGUUAAGUAUAGCACAUGAGGAUCACCCAUGUCAGGACCGGGACUCUACCCG [theeternabot_exclusion_MS2_Trp_B_16] ?
Reply: range 2

----------
Measured apparent KD of MS2 coat protein by item
Tested on: MS2 coat protein
Experiment: apparent KD of MS2 coat protein; designed switch direction (-1 OFF switch, 1 ON switch): -1; higher = weaker reporter binding
Conditions: input ligand: FMN 200 uM
Please respond with the number in µM and leave the unit unwritten.

Reference set, count: 2
Query: Need apparent KD of MS2 coat protein, item GAAUAGCGAGGAUAUGCAAUGAAGAUCGUACGAUAUGGCUGACAUGAGGAUCACCCAUGUAGAAGGCGCUGAUC [EX2 #14] (Eterna round: R97, puzzle: Exclusion 2)
Reply: 0.0551

Query: Same question for CUUUUGUGAGGAUAUUCGUAGUAGGGUCAUGGUACUAUUACGGAGAAGGCACAUGAGGAUCACCCAUGUACCUU [EX4 #44] (Eterna round: R97, puzzle: Exclusion 4) please.
Reply: 0.025

New cases:
Query: Fill blank: measured apparent KD of MS2 coat protein of the sequence GAGCCAUCGUGAGAUGGCUAAUUUACAUGAGGAUCACCCAUGUAGGAUAUCGAUUGCUUUGCAGUCGAGAAGGACAUGUUUAAU [JL ENG3 3.98] (Eterna round: R96, puzzle: Exclusion NG 3) is ____.
Reply: 0.0716

----------
System: MS2 coat protein
Test: apparent KD of MS2 coat protein; higher = weaker reporter binding
Conditions: Eterna round: R107; input ligand: arginine 13.2 mM
Recorded apparent KD of MS2 coat protein by entry
// return numeric value only (unit: nM, not printed)

Worked examples follow.
Query: I am curious: what apparent KD of MS2 coat protein value has been reported for AAAACACAUGAGGAUCACCCAUGUCAUGAUACCAGUCAACAUGAGGACCCUUGGCAGCAUAAAAUGGGUAACAUGAGGAUCACCC [AstrosEXyTheA#1] ?
Reply: 129

Query: Then this sequence: AACAUGAGGAUCACCCAUGUCGGGCCGGAGCGAGGACCGGUACGGCCGCCACUCGAGACAUGAGGAUCACCCAUGUAGGGCGAAA [Exclusion Tryptophan A GF21]
Reply: 61.5

Query: What do you get for AGCACGGUGAUGGUAGCCGGACGCUAAGUACGAGGACCGGUACGGCCGCCACUCGGAGUCCUACGACAUGAGGAUCACCCAUGUA [Same State Trp A GF12] ?
Reply: 34.3

Query: Quick one: AGCAUACAUUCUGAUACCAGAGACAUGAGGAUCACCCAUGUCCGAUCGUCCUGCCUCAGACUCCCUUGGCAGCAGGAUGUGUGCU [Exclusion Theophylline B GF6]
Reply: 13.1

Query: Also CCUAUGCAGUCGGCCGCCACUGAACAUGAGGAUCACCCAUGUAAUUAUAAAUAUGGUCCUAAAAUCAGGACCGGGACUGUAUAGG [Ex Tryptophan B 7] ?
Reply: 122

Alright, here's another sequence for you.
Query: Need apparent KD of MS2 coat protein of UUUGCACAUGAGGAUCACCCAUGUACAGAUACCAGCCUCAUCUACGGCCCUUGGCAGCUGAGACAAUGGUGACGUGAUGGGCUUU [Iserraxeso] , thanks.
Reply: 12.9

----------
Reported apparent KD of MS2 coat protein values are given for each entry in this list.
System: MS2 coat protein
Experiment: apparent KD of MS2 coat protein; designed switch direction (-1 OFF switch, 1 ON switch): 1; higher = weaker reporter binding
Settings: input ligand: microRNA oligo, concentration not stated
State the answer as a number, implicitly in nM.

Consider the following illustrative entries.
Query: Returns the measured apparent KD of MS2 coat protein for the input sequence. Input: UUGAAGAAUUAAGGAUAUUGAUUACAUAUGUUUAACAUGAGGAUCACCCAUGUGGGUUGCGGUAUCGAGAAGGUAAAAUAAUAG [Mat - same State NG 2 - JL mod - D82] (Eterna round: R96, puzzle: Same State NG 2)
Reply: 231

Query: Now consider CCCUUCGGCACAUGAGGAUCACCCAUGUUUUAGUGGAAGAGGUAGGAUAUGGCUGGGAGCAGAAGCCAGAAGGACCAAAUAAAU [Attiatan] (Eterna round: R96, puzzle: Same State NG 3) and answer again.
Reply: 19

Query: Try this sequence next: UGUUGUAUUACAGGAUAUCUAUUAGUUUUAAUUAGAGAAGGGUAUUCACAUGAGGAUCACCCAUGUAUAUACGAGGAAGUUGUG [JMF's solution 98] (Eterna round: R96, puzzle: Same State NG 1)
Reply: 33.8

Please examine the following record next.
Query: Using the record for GUAGCAUACCGAGGAUAUUCAUUACAUGAGGAUCACCCAUGUUAGGCCAGCAUUAGCUGGCCUUGGGAGAAGGCGGAAUGCUAC [Xeonanis - 20 Mod53] (Eterna round: R96, puzzle: Same State NG 2) , report its apparent KD of MS2 coat protein.
Reply: 29.1

----------
# key: entry, value: apparent KD of K4 kissing-loop reporter
Test system: K4 kissing-loop RNA reporter;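 note: bound reporter read as fluorescence of individual clusters on recovered sequencing chips by microscopy, with normalized cluster intensities fitted with a binding model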
Test: apparent KD of K4 kissing-loop reporter; higher = weaker reporter binding
Conditions: Eterna round: R107; input ligand: arginine 13.2 mM
Your answer should be a plain number; it is taken to be in nM.

Query: Endpoint output: apparent KD of K4 kissing-loop reporter of UGUCUUCAGUGAUGUUGAUGACAACACUUAAAGGAUAUGCGAGAGAGCAGAAGGUUAAACAACGCGCAAAUCAAGGAGGGUCUAG [theeternabot_exclusion_KL_FMN_A_30] . Value?
Reply: 161

Query: Same thing, different sequence: GUAUAAGUGGGCGAUACCAGCUGUCGGUAGUGAUGUUAUUCAGCAGUCAGGAAGUUCGCUAGCCCUUGGCAGCGCCAGUGGUGAC [theeternabot_exclusion_KL_Theo_B_19]
Reply: 324

Query: Another: UUAGCUCUAUAGAGCAAGAGGUAUACUGAUACCAGAGGCUAUAGCCUCCCUUGGCAGCGGAUCGAGUGAUGUUCGUAACCUCAUU [AK4.5 SS Theophylline A]
Reply: 661

----------
Tested on: MS2 coat protein
Test: apparent KD of MS2 coat protein; designed switch direction (-1 OFF switch, 1 ON switch): -1; higher = weaker reporter binding
Conditions: Eterna round: R95; input ligand: microRNA oligo, concentration not stated
measurement_kind: apparent KD of MS2 coat protein (nM)
Form entry: value (nM) — number only.

Query: Given UAUGUAUACGUCAGGAUAUACGGUCCAGAUGGUAAGUAGAAGGGACAUGAGGAUCACCCAUGUAUAAUAAUAAU [AK 1] (puzzle: Brourd's mod of Exclusion 4) , state its recorded apparent KD of MS2 coat protein.
Reply: 18

Query: Then this sequence: AGAUGUAGAUGCCGAUCCUACAUGAGGAUCACCCAUGUAGCUAGACGUGCGGGCGGCGCUCGUCGGACUACCAGUAG [salish99_TOv1_r3_097] (puzzle: Sensor v3, turn-off variant 1)
Reply: 82.4

Query: Entry GAGGGACAUGAGGAUCACCCAUGUGAGGAUAUGUAAGAGAGAAGAGAGAGGAUAAGAAACAGAAGGCGCGGGAG [JR_Exclu1_Sub090] (puzzle: Exclusion 1) please
Reply: 44
